Assay: physchem
Details: buffer
Non-standard residues stand in square brackets, D forms with d. Residues, ends and D or L forms follow the SMILES beside them. Aze = O=C(O)[C@@H]1CCN1; Aib = CC(C)(N)C(=O)O

compound: C[C@@H](O)[C@H](NC(=O)CNC(=O)[C@H](CCCNC(=N)N)NC(=O)[C@H](CO)NC(=O)[C@H](Cc1c[nH]cn1)NC(=O)[C@@H]1CCN1C(=O)C(C)(C)N)C(=O)N[C@@H](Cc1ccccc1)C(N)=O [Compound 26] (H-[Aib][Aze]HSRGTF-NH2)
half-life at 1 mg/ml: > 20.8 days

* * *

Assay: Rate of model dipeptide cleavage from model hexapeptide in PBS (HPLC)
Settings: buffer

smiles-input: C[C@@H](O)[C@H](NC(=O)CNC(=O)[C@H](CCCNC(=N)N)NC(=O)[C@H](CO)NC(=O)[C@H](Cc1c[nH]cn1)NC(=O)[C@H](Cc1ccccc1)N(C)C(=O)[C@H](N)CCCCN)C(=O)N[C@@H](Cc1ccccc1)C(N)=O
unit-abbreviation: h
half-life at 1 mg/ml: 57
--
smiles-input: C[C@@H](O)[C@H](NC(=O)CNC(=O)[C@H](CCCNC(=N)N)NC(=O)[C@H](CO)NC(=O)[C@H](Cc1c[nH]cn1)NC(=O)[C@H](C)N(C)C(=O)[C@H](N)CCCCN)C(=O)N[C@@H](Cc1ccccc1)C(N)=O
unit-abbreviation: h
half-life at 1 mg/ml: 14
